Reference source: patent US9271977B2

assay.protocol: Microsome stability assay, human liver microsomes
Assay type: in vitro ADME
conditions: pH 7.4; human liver microsomes, NADPH, 37° C.
endpoint.name: half-life at 1 µM
Number first, unit second.

// sample CC[C@H]1C[C@H](C)[C@@]2(NC1=O)O[C@@H](C[C@H](O)[C@@H](C)CC/C=C/C=C(\C)[C@@H]1C/C=C/C=C/[C@H](O)[C@H](C)[C@@H](O)[C@@H](CCC(C)=O)C(=O)N[C@@H](C(C)C)C(=O)N[C@@H](Cc3ccccc3)C(=O)N3CCCC(N3)C(=O)O1)[C@H](C)[C@H](O)[C@@H]2C (stereo partly shown) [Compound 18, 61-Deshydroxy Sanglifehrin A] , its half-life at 1 µM was 7.64 min
